All figures here come from PubChem BioAssay AID651699.

measurement_target: NEDD8-conjugating enzyme Ubc12 (Homo sapiens) + NEDD8-activating enzyme E1 regulatory subunit (Homo sapiens) (UniProt P61081+Q13564)
Sequence (P61081 whole entry, looked up): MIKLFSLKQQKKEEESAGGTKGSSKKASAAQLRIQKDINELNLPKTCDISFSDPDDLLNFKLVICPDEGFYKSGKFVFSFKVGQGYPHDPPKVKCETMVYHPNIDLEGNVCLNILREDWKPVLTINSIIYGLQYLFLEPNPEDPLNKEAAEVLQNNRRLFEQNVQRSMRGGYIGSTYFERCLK
Sequence (Q13564 whole entry, looked up): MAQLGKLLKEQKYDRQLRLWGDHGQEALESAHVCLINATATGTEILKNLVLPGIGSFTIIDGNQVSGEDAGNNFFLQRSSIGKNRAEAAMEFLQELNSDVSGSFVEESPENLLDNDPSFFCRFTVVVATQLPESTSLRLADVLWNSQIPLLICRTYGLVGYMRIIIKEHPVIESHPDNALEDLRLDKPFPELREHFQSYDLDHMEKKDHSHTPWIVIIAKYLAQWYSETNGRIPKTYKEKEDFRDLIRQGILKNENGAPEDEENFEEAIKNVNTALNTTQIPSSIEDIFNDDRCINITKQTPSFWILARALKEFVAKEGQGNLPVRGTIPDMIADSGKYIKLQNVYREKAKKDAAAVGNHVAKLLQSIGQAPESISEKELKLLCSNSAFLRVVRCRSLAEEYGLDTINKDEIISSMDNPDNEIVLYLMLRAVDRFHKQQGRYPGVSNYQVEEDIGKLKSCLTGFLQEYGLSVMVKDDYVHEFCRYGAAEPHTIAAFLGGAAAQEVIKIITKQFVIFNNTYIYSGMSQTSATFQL
assay_procedure: inhibitors of cullin neddylation, primary screen, biochemical, TR-FRET, uHTS, NAE and Ubc12 (AID 651699)
applied_conditions: at 25 µM
The campaign covered roughly 360,000 compounds. About 2,100 (0.58%) were called active. Rule as the data show it: active = inhibition above about 36%; inactive = the rest. What follows is part of a selection rich in actives, with near analogues and random picks from the rest.
Classes used: label 1 = active, label 0 = inactive

| compound | answer_label |
| --- | --- |
| Cc1cc(C)c(-c2c(O)c3ccccc3n(C)c2=O)c(C)c1 | label 1 |
| CC1CCCCC1NC(=O)Cn1cnc2c1c(=O)n(C)c(=O)n2C (stereo not given) | label 0 |
| C/C(=N\Nc1nc(N2CCOCC2)nc(N2CCOCC2)n1)c1ccc([N+](=O)[O-])cc1 | label 0 |
| O=C(NCCCO)c1cc2c([nH]c3ccccc32)c(-c2ccc(F)cc2)n1 | label 1 |
| Fc1ccccc1/C=N/Nc1cc(N2CCCCC2)ncn1 | label 0 |
| O=C(NCC1CCCO1)c1cc2c([nH]c3ccccc32)c(-c2ccc(F)cc2)n1 (stereo not given) | label 0 |
| CN(C)c1ccc(/C=N/Nc2cc(N3CCOCC3)nc(N3CCOCC3)n2)cc1 | label 1 |
| O=C(NNC(=S)NC1CC2CCC1C2)c1ccc(Cl)cc1 (stereo not given) | label 1 |
| Cn1c(=O)c(Sc2ccc(Cl)cc2)c(O)c2ccccc21 | label 0 |
| COc1ccc(-n2cc(CN(C)Cc3n[nH]c(=O)[nH]3)c(-c3cccc(F)c3)n2)cc1 | label 1 |

* * *

measurement_target: NEDD8-conjugating enzyme Ubc12 (Homo sapiens) + NEDD8-activating enzyme E1 regulatory subunit (Homo sapiens) (UniProt P61081+Q13564)
assay_procedure: inhibitors of cullin neddylation, primary screen, biochemical, TR-FRET, uHTS, NAE and Ubc12 (AID 651699)
applied_conditions: at 25 µM, stronger effect = higher value
Hit rate of the full screen: of about 360,000 compounds, about 2,100 (0.58%) were called active. The sample as a whole holds a higher share of actives than the screen did.
recorded_endpoint: inhibition (%)

| compound | recorded_endpoint | quantitative_readout |
| --- | --- | --- |
| NC(=O)CN1CCCC1c1ccc2c(c1)OCCO2 (configuration not stated) | inhibition | 0.21 |
| COc1ccc(S(=O)(=O)N2CCN(C)CC2)c(C)c1 | inhibition | -9.29 |
| Cc1noc(C)c1C(=O)OCC(=O)/C=C1\N(C)c2ccccc2C1(C)C | inhibition | 43.7 |
| COc1ccc(CN(CC(=O)NC2CCCC2)C(=O)CCC(=O)Nc2cc(C)on2)cc1 | inhibition | 6.41 |
| COc1cc2c(cc1NC(=O)COC(=O)/C=C/c1ccccc1)oc1ccccc12 | inhibition | 29.1 |
| O=C(c1ccc(Cl)s1)N(Cc1nnc(-c2ccccc2Cl)o1)C1CC1 | inhibition | 12.9 |
| COc1cc2cc(C(=O)N/N=C/c3cccc(OC)c3OC)[nH]c2cc1OC | inhibition | 40.2 |
| O=c1cc(CO)oc(C(Nc2cccc(C(F)(F)F)c2)c2ccccn2)c1O (configuration not stated) | inhibition | 0.9 |
| CN(C(=O)COC(=O)c1cc(-c2ccco2)nc2ccccc12)C1CCS(=O)(=O)C1 (configuration not stated) | inhibition | -19.8 |
| O=C(NCc1cccc(C(F)(F)F)c1)c1ccc2sc(COCCO)nc2c1 | inhibition | 3.36 |
| C1=C(N2CCOCC2)/C(=C/c2nc3ccccc3[nH]2)CC1 | inhibition | 43 |
| COc1cccc(C(=O)N/N=C(\C)c2cccc(NC(=O)c3ccc(F)cc3)c2)c1OC | inhibition | -8.13 |
| COc1ccc(C2OC(=O)CC2C(=O)NC(C)C)cc1 (configuration not stated) | inhibition | 4.68 |
| Cc1noc(C)c1COc1cccc(C(=O)Nc2cccnc2)c1 | inhibition | -1.48 |
| CSCCC(NS(=O)(=O)/C=C/c1ccccc1)C(=O)N1CCC(C)CC1 (configuration not stated) | inhibition | 5.25 |
| C=CCNC(=O)C1CC=CCC1C(=O)O (configuration not stated) | inhibition | 4.38 |
| COc1ccc(NC(=O)CCC(=O)N2CCN(S(=O)(=O)c3ccc(C)cc3)CC2)c(OC)c1 | inhibition | 2.78 |
| COc1ccc2c(c1OC)C(=O)N(c1ccc(O)cc1)C2 | inhibition | 14.7 |
| Cc1ccc(-n2ncc3c(Nc4cccc(C(=O)O)c4)ncnc32)cc1 | inhibition | 38.5 |
| COc1ccc2c(c1OC)C(=O)N(c1ncn[nH]1)C2 | inhibition | 39.8 |
| CCOc1ccc(NC(=O)C2CCCN(C(=O)Nc3ccccc3)C2)cc1 (configuration not stated) | inhibition | -6.95 |
| COc1cc(/C(=C/c2ccccc2)c2ccccc2)c2c(c1)oc1ccccc12 | inhibition | 49.4 |
| O=C(CN1CCN(c2ccccc2O)CC1)NC(=O)NCc1ccccc1 | inhibition | 1.32 |
| O=C(c1cc(-c2ccco2)nc2ccccc12)N(Cc1nnc(-c2ccc(Cl)cc2)o1)C1CC1 | inhibition | 38.9 |
| O=S(=O)(NCCCN1CCOCC1)c1ccc(F)c(Cl)c1 | inhibition | -7.79 |
| CC(OC(=O)/C=C/c1ccccc1)C(=O)Nc1ccc(C(N)=O)cc1 (configuration not stated) | inhibition | 9.24 |
| COc1ccc(N2CC(C(=O)N[C@@H](C)C(=O)N3CCCCC3)CC2=O)cc1 (some centres not stated) | inhibition | -5.41 |
| COc1cccc2cc(/C(C)=N/NC(=O)c3ccco3)oc12 | inhibition | -10.7 |
| O=[N+]([O-])c1ccc2c(c1)C(O)n1nc(-c3ccccc3)nc1S2 (configuration not stated) | inhibition | -7.67 |
| O=C(CCc1nnc(Cc2ccc3c(c2)OCO3)o1)NCCc1ccccc1Cl | inhibition | -1.6 |
| O=C(CN1CCN(C2CCS(=O)(=O)C2)CC1)N1N=C(c2ccc(Cl)cc2)CC1c1ccco1 (configuration not stated) | inhibition | 3.58 |
| N/C(Cc1ccc([N+](=O)[O-])cc1)=N\OC(=O)C1CCCCC1 | inhibition | -35.6 |
